# experimentSummary: Thermodynamic solubility of the compound in PBS at pH 7.4 incubated for 20 hrs by HPLC-UV analysis
# Format: physicochemical
# conditionInfo: read-out: Therm_solubility
quantity: solubility thermodynamic at 20 h (µg/mL)
Enter your answer as a number in µg/mL; do not include the unit.

Looking up CCCCCCCCc1ccc(OCC(=O)Cn2cc(C(=O)C(C)C)cc2CCC(=O)O)cc1 , I see its solubility thermodynamic at 20 h listed as 394

###

# experimentSummary: Metabolic stability in rat liver S9 fraction assessed as parent compound remaining at 20 uM incubated for 30 mins in presence of NADPH by HPLC-MS analysis
# Type: ADME, subcellular
# conditionInfo: read-out: Stability
quantity: remaining at 0.5 h, 20 µM

Worked examples follow.
[[record]]
molecule = "CCCCCCCCc1ccc(OCC(=O)Cn2cc(CCC(=O)O)c(C(=O)C(C)C)c2)cc1"
result = "54%"

[[record]]
molecule = "Cc1noc(-c2cn(CC(=O)C(C)Oc3ccc(Oc4ccc(Cl)cc4)cc3)cc2CCC(=O)O)n1 (centres undefined)"
result = "21%"

[[record]]
molecule = "CCCCCCCCc1ccc(OCC(=O)Cn2c(C)c(CCC(=O)O)c(C(=O)C(C)C)c2C)cc1"
result = "39%"

[[record]]
molecule = "Cc1noc(-c2cn(CC(=O)C(C)Oc3ccc(Oc4ccc(F)cc4)cc3)cc2CCC(=O)O)n1 (centres undefined)"
result = "15%"

[[record]]
molecule = "CC(C)C(=O)c1cn(CC(=O)COc2ccc(Oc3ccc(C(F)(F)F)cc3)cc2)cc1CCC(=O)O"
result = "< 5%"


Looking up CCCCCCCCc1ccc(OCC(=O)Cn2cc(C(=O)C(C)C)cc2CCC(=O)O)cc1 , I see its remaining at 0.5 h, 20 µM listed as 60%

Looking up CCCCCCCCc1ccc(OCC(=O)C(C)n2cc(CCC(=O)O)c(-c3nc(C)no3)c2)cc1 (centres undefined) , I see its remaining at 0.5 h, 20 µM listed as 43%

Looking up CCCCCCCCc1ccc(OCC(=O)Cn2cc(CC(=O)O)c(C(=O)C(C)C)c2)cc1 , I see its remaining at 0.5 h, 20 µM listed as 25%

Looking up CCCCCCCCc1ccc(OCC(=O)Cn2cc(C(=O)C(C)C)cc2CCCC(=O)O)cc1 , I see its remaining at 0.5 h, 20 µM listed as 59%

###

# experimentSummary: Metabolic stability in rat liver S9 fraction assessed as parent compound remaining at 20 uM incubated for 30 mins in presence of NADPH by HPLC-MS analysis
# Assay type: ADME, subcellular
# conditionInfo: read-out: Stability
quantity: remaining at 0.5 h, 20 µM

[[record]]
compound = "CC(C)C(=O)c1cn(CC(=O)COc2ccc(-c3ccc(C(F)(F)F)cc3)cc2)cc1CCC(=O)O"
result = "34%"

[[record]]
compound = "CC(C)C(=O)c1cn(CC(=O)COc2ccc(C34CC5CC(CC(C5)C3)C4)cc2)cc1CCC(=O)O"
result = "20%"

[[record]]
compound = "CCCCCCCCc1ccc(OCC(=O)Cn2cc(-c3nc(C)no3)c3cc(C(=O)O)ccc32)cc1"
result = "30%"

[[record]]
compound = "CCCCCCCCc1ccc(OCC(=O)Cn2cc(CCC(=O)O)c(-c3nc(C)no3)c2)cc1"
result = "34%"

[[record]]
compound = "CC(C)C(=O)c1cn(CC(=O)COc2ccc3c(ccn3-c3ccc(F)cc3)c2)cc1CCC(=O)O"
result = "< 5%"


Looking up CCCCCCCCc1ccc(OCC(=O)Cn2cc(CCCC(=O)O)c(C(=O)C(C)C)c2)cc1 , I see its remaining at 0.5 h, 20 µM listed as 25%

Looking up COc1cccc2c1C(=O)c1c(O)c3c(c(O)c1C2=O)C[C@@](O)(C(C)=O)C[C@@H]3O[C@H]1C[C@H](N)[C@H](O)[C@H](C)O1 , I see its remaining at 0.5 h, 20 µM listed as 28%

Looking up Cc1noc(-c2cn(CC(=O)C(C)Oc3ccc(Oc4ccc(C(F)(F)F)cc4)cc3)cc2CCC(=O)O)n1 (centres undefined) , I see its remaining at 0.5 h, 20 µM listed as 30%

Looking up CCCCCCCCc1ccc(OC(C)C(=O)Cn2cc(CCC(=O)O)c(-c3nc(C)no3)c2)cc1 (centres undefined) , I see its remaining at 0.5 h, 20 µM listed as 62%

###

# experimentSummary: Inhibition of porcine cytosolic phospholipase A2 alpha using SAPC and 2-dioleoyl-sn-glycerol as substrate incubated for 60 mins by HPLC-UV analysis
# Design: species or system Sus scrofa
IC50 less than 10 nM is fulfilled; IC50 greater than or equal to 10 nM is not fulfilled.

Solved entries (count: 2):
[[record]]
molecule = "CC(C)C(=O)c1cn(CC(=O)COc2ccc(C34CC5CC(CC(C5)C3)C4)cc2)cc1CCC(=O)O"
group = "not fulfilled"

[[record]]
molecule = "Cc1noc(-c2cn(CC(=O)C(C)Oc3ccc(Oc4ccc(C(F)(F)F)cc4)cc3)cc2CCC(=O)O)n1 (configuration not stated)"
group = "not fulfilled"


Turning now to a further record.
# check: IC50 < 10 nM for CCCCCCCCc1ccc(OCC(=O)C(C)n2cc(CCC(=O)O)c(-c3nc(C)no3)c2)cc1 (configuration not stated)
fulfilled

###

IC50 listing for selected molecules.
# experimentSummary: Inhibition of porcine cytosolic phospholipase A2 alpha using SAPC and 2-dioleoyl-sn-glycerol as substrate incubated for 60 mins by HPLC-UV analysis
# Design: species or system Sus scrofa
Enter your answer as a number in nM; do not include the unit.

Worked examples follow.
[[record]]
molecule = "Cc1noc(-c2cn(CC(=O)C(C)Oc3ccc(Oc4ccc(Cl)cc4)cc3)cc2CCC(=O)O)n1 (centres undefined)"
valueunit = "nM"
quantitativereadout = 38

[[record]]
molecule = "CCCCCCCCc1ccc(OCC(=O)Cn2cc(-c3nc(C)no3)c3cc(C(=O)O)ccc32)cc1"
valueunit = "nM"
quantitativereadout = 15

[[record]]
molecule = "CC(C)C(=O)c1cn(CC(=O)COc2ccc(Oc3ccccc3)cc2)c2ccc(C(=O)O)cc12"
valueunit = "nM"
quantitativereadout = 12


Now consider a different molecule.
Looking up CCCCCCCCc1ccc(OCC(=O)Cn2cc(C(=O)C(C)C)c3cc(C(=O)O)ccc32)cc1 , I see its IC50 listed as 10

meta.source: ChEMBL document CHEMBL5236626
